assay: Pharmacokinetics/tissue distribution of GQD constituents in the livers of mice after oral GQD; type: in vivo, Kunming mice; conditions: both, Kunming, mouse, liver (homogenate); liver, mice, oral GQD extract 6.1 g/kg
Measured Cmax accompanies every entry in the list below.
Report the value in ng/g with no unit label.

[[record]]
chemical_string = "CC1(C)[C@@H](O)CC[C@]2(C)[C@H]3C(=O)C=C4[C@@H]5C[C@@](C)(C(=O)O)CC[C@]5(C)CC[C@@]4(C)[C@]3(C)CC[C@@H]12"
unit = "ng/g"
reading = 910

[[record]]
chemical_string = "O=c1cc(-c2ccccc2)oc2cc(O)c(O)c(O)c12"
unit = "ng/g"
reading = 9020

[[record]]
chemical_string = "CC1(C)[C@@H](O[C@H]2O[C@H](C(=O)O)[C@@H](O)[C@H](O)[C@H]2O[C@@H]2O[C@H](C(=O)O)[C@@H](O)[C@H](O)[C@H]2O)CC[C@]2(C)[C@H]3C(=O)C=C4[C@@H]5C[C@@](C)(C(=O)O)CC[C@]5(C)CC[C@@]4(C)[C@]3(C)CC[C@@H]12"
unit = "ng/g"
reading = 148

[[record]]
chemical_string = "COc1ccc2c(c1O)-c1c(O)c(OC)cc3c1[C@H](C2)[N+](C)(C)CC3"
unit = "ng/g"
reading = 53.4


With those in mind, consider the next molecule.
# input molecule: COc1ccc2cc3[n+](cc2c1OC)CCc1cc2c(cc1-3)OCO2 ; wanted: its Cmax
427

====

test: Pharmacokinetics of GQD constituents in the systemic circulation of mice after oral GQD; assay type: in vivo, Kunming mice; conditions: both, Kunming, mouse, in vivo; systemic circulation plasma, mice, oral GQD 6.1 g/kg; read-out: Tmax
property-name: Tmax (min)
Report the value in min with no unit label.

# input molecule: O=c1c(-c2ccc(O)cc2)coc2cc(O[C@@H]3O[C@H](CO)[C@@H](O)[C@H](O)[C@H]3O)ccc12 [Daidzin, daidzin] ; wanted: its Tmax
15

====

test: Pharmacokinetics of GQD constituents in the portal vein of mice after oral GQD; assay type: in vivo, Kunming mice; settings: both, Kunming, mouse, in vivo, po, […]
Measured half-life accompanies every entry in the list below.
Report the value in h with no unit label.

[[record]]
molecule = "O=c1c(-c2ccc(O)cc2)coc2cc(O)ccc12 [Daidzein, daidzein]"
reading = 2.6

[[record]]
molecule = "c1c2c(cc3c1OCO3)-c1cc3ccc4c(c3c[n+]1CC2)OCO4 [Coptisine, coptisine]"
reading = 4.7


# input molecule: O=C1C[C@@H](c2ccc(O[C@@H]3O[C@H](CO)[C@@H](O)[C@H](O)[C@H]3O)cc2)Oc2cc(O)ccc21 [Liquiritin, liquiritin] ; wanted: its half-life
2.5

====

experiment: Pharmacokinetics/tissue distribution of GQD constituents in the colons of mice after oral GQD; assay type: in vivo, Kunming mice; conditions: both, Kunming, mouse, in vivo; colon, mice, oral GQD extract 6.1 g/kg; read-out: Tmax
property-name: Tmax (h)
Report the value in h with no unit label.

# input compound: O=c1c(-c2ccc(O)cc2)coc2cc(O[C@@H]3O[C@H](CO)[C@@H](O)[C@H](O)[C@H]3O)ccc12 ; wanted: its Tmax
1

====

Measured Tmax accompanies every entry in the list below.
assay: Pharmacokinetics of GQD constituents in the portal vein of mice after oral GQD; assay type: in vivo, Kunming mice; conditions: both, Kunming, mouse, portal vein plasma, po, […], portal vein plasma, mice, oral GQD extract […]; read-out: Tmax
Report the value in h with no unit label.

[[record]]
chemical_string = "COc1ccc2cc3[n+](cc2c1OC)CCc1cc2c(cc1-3)OCO2"
property_name = "Tmax"
reading = 4

[[record]]
chemical_string = "COc1ccc2cc3[n+](cc2c1O)CCc1cc2c(cc1-3)OCO2"
property_name = "Tmax"
reading = 0.25

[[record]]
chemical_string = "CC1(C)[C@@H](O)CC[C@]2(C)[C@H]3C(=O)C=C4[C@@H]5C[C@@](C)(C(=O)O)CC[C@]5(C)CC[C@@]4(C)[C@]3(C)CC[C@@H]12"
property_name = "Tmax"
reading = 4


# input compound: COc1c(O)cc(O)c2c(=O)cc(-c3ccccc3)oc12 ; wanted: its Tmax
2

Thanks! And O=c1cc(-c2ccccc2)oc2cc(O)c(O)c(O)c12 ?
2

Thanks! And CC1(C)[C@@H](O[C@H]2O[C@H](C(=O)O)[C@@H](O)[C@H](O)[C@H]2O[C@@H]2O[C@H](C(=O)O)[C@@H](O)[C@H](O)[C@H]2O)CC[C@]2(C)[C@H]3C(=O)C=C4[C@@H]5C[C@@](C)(C(=O)O)CC[C@]5(C)CC[C@@]4(C)[C@]3(C)CC[C@@H]12 ?
2

Thanks! And O=C(O)[C@H]1O[C@@H](Oc2cc3oc(-c4ccccc4)cc(=O)c3c(O)c2O)[C@H](O)[C@@H](O)[C@@H]1O ?
4

Thanks! And COc1ccc2c(c1O)-c1c(O)c(OC)cc3c1[C@H](C2)[N+](C)(C)CC3 ?
0.25

Thanks! And COc1cc2c(cc1O)CC[n+]1cc3c(OC)c(OC)ccc3cc1-2 ?
4
